Tested on: JAK1-dependent STAT6 phosphorylation downstream of IL-13 stimulation in TF-1 human erythroleukemia cells
procedure-details: cells
measurement-parameters: TF-1, read-out: IL-13-pSTAT6 IC50
property: IC50 (nM)

INSERT INTO measurements (compound, property, unit_label, reported_measurement) VALUES
  ('CN1CCCCC1C1CCCN1C(=O)c1ccc(Nc2nc3c(N4CCC(O)(c5ccc(Cl)cc5)CC4)cccn3n2)cc1 (stereo not shown)', 'IC50', 'nM', 21.1),
  ('CN(Cc1ccccc1-c1cccnc1)C(=O)c1ccc(Nc2nc3c(C4=CCN(C(=O)CCC(F)(F)F)CC4)cccn3n2)cc1', 'IC50', 'nM', 59.7),
  ('CCOC(=O)N1CC=C(c2cccn3nc(Nc4ccc(C(=O)NCCC5CCCCN5)cc4)nc23)CC1 (stereo not shown)', 'IC50', 'nM', 463),
  ('CCOC(=O)N1CC=C(c2cccn3nc(Nc4ccc(C(=O)N5CC6(CCN(C)CC6)C5)cc4)nc23)CC1', 'IC50', 'nM', 12.2),
  ('O=C(CCC(F)(F)F)N1CC=C(c2cccn3nc(Nc4ccc(C(=O)N5CC6(CNC6)C5)cc4)nc23)CC1', 'IC50', 'nM', 217),
  ('O=C(NCCC1CCCNC1)c1ccc(Nc2nc3c(C4=CCN(C(=O)CCC(F)(F)F)CC4)cccn3n2)cc1 (stereo not shown)', 'IC50', 'nM', 278),
  ('CN(C(=O)c1ccc(Nc2nc3c(C4=CCN(C(=O)CCC(F)(F)F)CC4)cccn3n2)cc1)C1CCN(Cc2ccccc2)C1 (stereo not shown)', 'IC50', 'nM', 48.1),
  ('O=C(NCC1CNCCO1)c1ccc(Nc2nc3c(C4=CCN(C(=O)CCC(F)(F)F)CC4)cccn3n2)cc1 (stereo not shown)', 'IC50', 'nM', 40.3),
  ('CN1CCN(C(=O)C2CCN(C(=O)c3ccc(Nc4nc5c(C6=CCN(C(=O)CCC(F)(F)F)CC6)cccn5n4)cc3)CC2)CC1', 'IC50', 'nM', 42.9),
  ('CCOC(=O)N1CC=C(c2cccn3nc(Nc4ccc(C(=O)NCc5ccc(C)nc5)cc4)nc23)CC1', 'IC50', 'nM', 12.2);

----------
Test system: JAK1-dependent STAT6 phosphorylation downstream of IL-13 stimulation in TF-1 human erythroleukemia cells
procedure-details: cells
measurement-parameters: TF-1, read-out: IL-13-pSTAT6 IC50
Counter-ions that a name gives are not always drawn.
property: IC50 (µM)

INSERT INTO measurements (molecule, reported_measurement) VALUES
  ('CN(Cc1cccnc1)C(=O)c1ccc(Nc2nc3c(N4CCC(O)(c5ccc(Cl)cc5)CC4)cccn3n2)cc1', 0.135),
  ('CCOC(=O)N1CC=C(c2cccn3nc(Nc4ccc(C(=O)N5CCN(C)CC(CO)C5)cc4)nc23)CC1 (stereo not shown)', 0.256),
  ('O=C(N[C@H]1CN2CCC1CC2)c1ccc(Nc2nc3c(N4CCC(O)(c5ccc(Cl)cc5)CC4)cccn3n2)cc1', 0.127),
  ('CN1CCC(N(C)C(=O)c2ccc(Nc3nc4c(N5CCCCC5)cccn4n3)cc2)CC1 [Example 1-12, dihydrochloride]', 3.4);

----------
Tested on: JAK1-dependent STAT6 phosphorylation downstream of IL-13 stimulation in TF-1 human erythroleukemia cells
procedure-details: cells
measurement-parameters: TF-1, read-out: IL-13-pSTAT6 IC50
pIC50: −log10 of the molar value.
Measured pIC50 values are reported for all entries that follow.
property: pIC50

INSERT INTO results (molecule, reported_measurement) VALUES
  ('O=C(CCC(F)(F)F)N1CC=C(c2cccn3nc(Nc4ccc(C(=O)N5C[C@H]6CN[C@H]6C5)cc4)nc23)CC1', 6.45),
  ('CCOC(=O)N1CC=C(c2cccn3nc(Nc4ccc(C(=O)N[C@H]5CCCNC5)cc4)nc23)CC1', 7.12),
  ('CCOC(=O)N1CC=C(c2cccn3nc(Nc4ccc(C(=O)NCCc5cccnc5)cc4)nc23)CC1', 7.85),
  ('O=C(CCC(F)(F)F)N1CC=C(c2cccn3nc(Nc4ccc(C(=O)N5CCC6(CCCCN6)C5)cc4)nc23)CC1 (stereo not drawn)', 6.62),
  ('NCC1CCN(C(=O)c2ccc(Nc3nc4c(C5=CCN(C(=O)CCC(F)(F)F)CC5)cccn4n3)cc2)CC1', 6.68),
  ('CCOC(=O)N1CC=C(c2cccn3nc(Nc4ccc(C(=O)N5CCC(c6ccncc6)C5)cc4)nc23)CC1 (stereo not drawn)', 7.52),
  ('CCOC(=O)N1CC=C(c2cccn3nc(Nc4ccc(C(=O)NC5CCNC5)cc4)nc23)CC1 (stereo not drawn)', 6.57),
  ('O=C(CCC(F)(F)F)N1CC=C(c2cccn3nc(Nc4ccc(C(=O)N5CCCC(c6ccccn6)C5)cc4)nc23)CC1 (stereo not drawn)', 7.94),
  ('O=C(CCC(F)(F)F)N1CC=C(c2cccn3nc(Nc4ccc(C(=O)N5CCC6(CCNC6)C5)cc4)nc23)CC1 (stereo not drawn)', 6.68),
  ('CN(C(=O)c1ccc(Nc2nc3c(C4=CCN(C(=O)CCC(F)(F)F)CC4)cccn3n2)cc1)C1CNC1', 6.54),
  ('O=C(NCC1CCCNC1)c1ccc(Nc2nc3c(C4=CCN(C(=O)CCC(F)(F)F)CC4)cccn3n2)cc1 (stereo not drawn)', 6.67),
  ('CN1CCC(N(C)C(=O)c2ccc(Nc3nc4c(C5=CCN(C(=O)CC(F)(F)F)CC5)cccn4n3)cc2)CC1', 7.55);

----------
Measured log10 of IC50 values are reported for all entries that follow.
Test system: JAK1-dependent STAT6 phosphorylation downstream of IL-13 stimulation in TF-1 human erythroleukemia cells
procedure-details: cells
measurement-parameters: TF-1, read-out: IL-13-pSTAT6 IC50
property: log10 of IC50 (log10 of the value in nM)

INSERT INTO assay_data (molecule, property, reported_measurement) VALUES
  ('CN1CCC(N(C)C(=O)c2ccc(Nc3nc4c(C5=CCN(CC#N)CC5)cccn4n3)cc2)CC1', 'log10 of IC50', 1.78),
  ('CCOC(=O)N1CC=C(c2cccn3nc(Nc4ccc(C(=O)N5CCC6(CCNC6)C5)cc4)nc23)CC1 (stereo not drawn)', 'log10 of IC50', 2.56),
  ('CCOC(=O)N1CC=C(c2cccn3nc(Nc4ccc(C(=O)N5CC6(CCCCN6)C5)cc4)nc23)CC1', 'log10 of IC50', 1.53),
  ('CN(C)C(=O)C1(c2ccncc2)CCCN1C(=O)c1ccc(Nc2nc3c(N4CCC(O)(c5ccc(Cl)cc5)CC4)cccn3n2)cc1 (stereo not drawn)', 'log10 of IC50', 1.53),
  ('O=C(CCC(F)(F)F)N1CC=C(c2cccn3nc(Nc4ccc(C(=O)N5CCN(CCn6ccnc6)CC5)cc4)nc23)CC1', 'log10 of IC50', 1.65),
  ('O=C(NCC1CCNC1)c1ccc(Nc2nc3c(N4CCC(O)(c5ccc(Cl)cc5)CC4)cccn3n2)cc1 (stereo not drawn)', 'log10 of IC50', 2.51);
